Reported cell viability values are given for each entry in this list.
Test system: U2OS
Experiment: cell viability relative to DMSO; higher = less toxic
Conditions: 72 h; 1000 nM
Answer with the number, then the unit.

Solved entries (count: 4):
Output measured cell viability for this item: CC(C)(C)CC(C)(C)c1ccc(O)c(Cc2ccc(Cl)cc2Cl)c1 [clofoctol]
103%

Output measured cell viability for this item: COc1cc(C[C@@H](CO)[C@H](CO)Cc2ccc(O)c(OC)c2)ccc1O [secoisolariciresinol-(-)]
104%

Output measured cell viability for this item: CC1(C)OC[C@@H](COC(=O)CCc2ccc(OC[C@@H](O)CNCCNC(=O)N3CCOCC3)cc2)O1 [landiolol]
101%

Output measured cell viability for this item: Cc1ccc([N+](=O)[O-])cc1O [2-methyl-5-nitrophenol]
96.1%

***
Output measured cell viability for this item: NC(=O)N1CCC(CC(=O)N2CCC([C@H]3c4ncc(Br)cc4CCc4cc(Cl)cc(Br)c43)CC2)CC1 [lonafarnib]
92%

Output measured cell viability for this item: C=CCCCCCCCCC(=O)[O][Zn][O]C(=O)CCCCCCCCC=C [zinc-undecylenate]
95.1%

Output measured cell viability for this item: O=C(Nc1ccc(Cl)cc1)Nc1cccc(-c2cccc(N3CCCC3)n2)c1 [PSNCBAM-1]
98.7%

Output measured cell viability for this item: CC(C)=CCC[C@](C)(O[C@@H]1O[C@H](CO)[C@@H](O)[C@H](O)[C@H]1O)[C@H]1CC[C@]2(C)[C@@H]1[C@H](O)C[C@@H]1[C@@]3(C)CC[C@H](O[C@@H]4O[C@H](CO)[C@@H](O)[C@H](O)[C@H]4O[C@@H]4O[C@H](CO)[C@@H](O)[C@H](O)[C@H]4O)C(C)(C)[C@@H]3CC[C@]12C [ginsenoside-RD]
100%

Output measured cell viability for this item: CC(C)Oc1cccc(CC(=O)N2CCC[C@](CC[N+]34CCC(c5ccccc5)(CC3)CC4)(c3ccc(Cl)c(Cl)c3)C2)c1
99.3%

Output measured cell viability for this item: O=c1c2ccccc2[se]n1-c1ccccc1 [Ebselen]
98.9%

Output measured cell viability for this item: CC(C)=CCC/C(C)=C/CC/C(C)=C/CSc1ccccc1C(N)=O [farnesyl-thiosalicylic-acid-amide]
98.3%

Output measured cell viability for this item: CCOC(=O)c1ccccc1OC(N)=O [ethyl-2-(carbamoyloxy)benzoate]
102%

Output measured cell viability for this item: O=c1c2ccccc2[se]n1-c1ccccc1 [ebselen]
97.4%

Output measured cell viability for this item: CCO/N=C(\C(=O)N[C@@H]1C(=O)N2C(C(=O)[O-])=C(Sc3nc(-c4cc[n+](C)cc4)cs3)CS[C@H]12)c1nsc(NP(=O)(O)O)n1 [ceftaroline-fosamil]
107%

Output measured cell viability for this item: O=C(Nc1ccc(S(=O)(=O)C(F)(F)F)cc1)C1=CCN(c2ncccc2C(F)(F)F)CC1
101%

Output measured cell viability for this item: CC(=O)[C@@]1(O)CC[C@H]2[C@@H]3C[C@H](C)C4=CC(=O)C=C[C@]4(C)[C@@]3(F)[C@@H](O)C[C@@]21C [fluorometholone]
97%
